Test system: mir-21 miRNA
Assay: pGL3-mir-21 sensor luciferase assay in HeLa cells
Assay type: cell-based, human
Details: Table 50, pGL3-mir-21 sensor-expressing HeLa cells, 1.9 nM, normalized to pRL-CMV
In the oligonucleotide strings, read from the 5' end, every base follows the letter of its sugar. An asterisk marks phosphorothioate; unmarked linkages are phosphodiester. Other units and linkages are bracketed, terminal groups are in braces. A string of capitals states the bases alone. e = 2'-O-(2-methoxyethyl) (MOE); [5mC] = 5-methylcytosine; d = 2'-deoxy (DNA)
Listed below: luciferase expression % UTC values for each entry.
REPORTED METRIC: luciferase expression % UTC (% UTC)

substance="342683 (antisense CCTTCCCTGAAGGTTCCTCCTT; scrambled control, further chemistry not given here) [compound 342683]" obs_value=127
substance="345382 (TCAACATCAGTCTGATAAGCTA; sugars from the 5' end e5 d10 e7, all phosphorothioate, methylation of C not given here) [compound 345382]" obs_value=101
substance="327917 (antisense eT*e[5mC]*eA*eA*e[5mC]*eA*eT*e[5mC]*eA*eG*eT*e[5mC]*eT*eG*eA*eT*eA*eA*eG*e[5mC]*eT*eA) [compound 327917]" obs_value=522
substance="358768 (eA*eG*eG*eT*eG*eG*eT*eA*e[5mC]*eA*eG*e[5mC]*e[5mC]*eA*eT*eG*eG*eA*eG*eA) [compound 358768]" obs_value=103

----------
Tested on: follistatin
Assay: Follistatin mRNA expression in HepG2 cells
Type: cell-based, human
Conditions: HepG2 cells, Experiment 1, basal (no insulin), four hours; UTC = 100
In the oligonucleotide strings, read from the 5' end, every base follows the letter of its sugar. An asterisk marks phosphorothioate; unmarked linkages are phosphodiester. Other units and linkages are bracketed, terminal groups are in braces. A string of capitals states the bases alone. e = 2'-O-(2-methoxyethyl) (MOE); [5mC] = 5-methylcytosine
REPORTED METRIC: Follistatin mRNA

substance="327897 (antisense eA*e[5mC]*eA*eG*eG*e[5mC]*e[5mC]*eG*eG*eG*eA*e[5mC]*eA*eA*eG*eT*eG*e[5mC]*eA*eA*eT*eA) [compound 327897]" obs_value=129
substance="327950 (antisense eT*e[5mC]*eA*eG*eT*eT*eT*eT*eG*e[5mC]*eA*eT*eA*eG*eA*eT*eT*eT*eG*e[5mC]*eA*e[5mC]*eA) [compound 327950]" obs_value=83
substance="341803 (antisense CCACACACTTCCTTACATTCCA; all 2'-MOE, all phosphorothioate, methylation of C not given here) [compound 341803]" obs_value=68
substance="327895 (antisense eA*e[5mC]*eA*eA*eA*e[5mC]*eA*e[5mC]*e[5mC]*eA*eT*eT*eG*eT*e[5mC]*eA*e[5mC]*eA*e[5mC]*eT*e[5mC]*e[5mC]*eA) [compound 327895]" obs_value=83

----------
Tested on: differentiated adipocytes
Assay: Hallmark genes and triglycerides in differentiated adipocytes
Assay type: cell-based, human
Conditions: Table 28; differentiated adipocytes transfected day nine post-differentiation; 250 nM oligonucleotide
In the oligonucleotide strings, read from the 5' end, every base follows the letter of its sugar. An asterisk marks phosphorothioate; unmarked linkages are phosphodiester. Other units and linkages are bracketed, terminal groups are in braces. A string of capitals states the bases alone. e = 2'-O-(2-methoxyethyl) (MOE); [5mC] = 5-methylcytosine
Could you mark each record criterion met if its HSL falls strictly under 1, and criterion not met if it equals or exceeds it?

substance="327901 (antisense eT*eG*eA*eG*e[5mC]*eT*eA*e[5mC]*eA*eG*eT*eG*e[5mC]*eT*eT*e[5mC]*eA*eT*e[5mC]*eT*e[5mC]*eA) [compound 327901]" label_value="criterion not met"
substance="327919 (antisense eG*eA*eA*eA*e[5mC]*e[5mC]*e[5mC]*eA*eG*e[5mC]*eA*eG*eA*e[5mC]*eA*eA*eT*eG*eT*eA*eG*e[5mC]*eT) [compound 327919]" label_value="criterion met"
substance="327903 (antisense eA*eA*e[5mC]*eT*eA*eT*eA*e[5mC]*eA*eA*e[5mC]*e[5mC]*eT*eA*e[5mC]*eT*eA*e[5mC]*e[5mC]*eT*e[5mC]*eA) [compound 327903]" label_value="criterion met"
substance="327925 (antisense eT*eA*eG*e[5mC]*eT*eG*eG*eT*eT*eG*eA*eA*eG*eG*eG*eG*eA*e[5mC]*e[5mC]*eA*eA) [compound 327925]" label_value="criterion not met"
substance="327933 (antisense eA*eA*eG*eG*eG*eA*eT*eT*e[5mC]*e[5mC]*eT*eG*eG*eG*eA*eA*eA*eA*e[5mC]*eT*eG*eG*eA*e[5mC]) [compound 327933]" label_value="criterion not met"

----------
Test system: HeLa cells
Test: Cell cycle assay in HeLa cells
Type: cell-based, human
Settings: HeLa cells, 150 nM oligomeric compound, 24 hours, relative to untreated control (UTC = 100)
In the oligonucleotide strings, read from the 5' end, every base follows the letter of its sugar. An asterisk marks phosphorothioate; unmarked linkages are phosphodiester. Other units and linkages are bracketed, terminal groups are in braces. A string of capitals states the bases alone. e = 2'-O-(2-methoxyethyl) (MOE); [5mC] = 5-methylcytosine; d = 2'-deoxy (DNA)
Listed below: % cells in cell cycle phase subG1 values for each entry.
REPORTED METRIC: % cells in cell cycle phase subG1 (%)

substance="338750 (antisense TCCGCGGGGGCGGGGAGGCT; all 2'-MOE, all phosphorothioate, methylation of C not given here) [compound 338750]" reported_metric="% cells in cell cycle phase subG1" obs_value=107
substance="341788 (antisense AGCCAAGCTCAGACGGATCCGA; all 2'-MOE, all phosphorothioate, methylation of C not given here) [compound 341788]" reported_metric="% cells in cell cycle phase subG1" obs_value=303
substance="328339 (eG*e[5mC]*eA*eG*e[5mC]*dG*d[5mC]*dA*dG*d[5mC]*dT*dG*dG*dT*d[5mC]*eT*e[5mC]*e[5mC]*e[5mC]*e[5mC]) [compound 328339]" reported_metric="% cells in cell cycle phase subG1" obs_value=235
substance="327878 (antisense e[5mC]*eT*eA*eG*eT*eG*eG*eT*e[5mC]*e[5mC]*eT*eA*eA*eA*e[5mC]*eA*eT*eT*eT*e[5mC]*eA*e[5mC]) [compound 327878]" reported_metric="% cells in cell cycle phase subG1" obs_value=124
substance="338690 (antisense TAGACAAAAACAGACTCTGA; all 2'-MOE, all phosphorothioate, methylation of C not given here) [compound 338690]" reported_metric="% cells in cell cycle phase subG1" obs_value=149

----------
Listed below: GLUT4 mRNA values for each entry.
Tested on: Glut4
Test: Glut4 mRNA expression in adipocytes (real-time PCR)
Assay type: cell-based, human
Settings: differentiating adipocytes transfected with oligomeric compound; Table 75
In the oligonucleotide strings, read from the 5' end, every base follows the letter of its sugar. An asterisk marks phosphorothioate; unmarked linkages are phosphodiester. Other units and linkages are bracketed, terminal groups are in braces. A string of capitals states the bases alone. e = 2'-O-(2-methoxyethyl) (MOE); [5mC] = 5-methylcytosine
REPORTED METRIC: GLUT4 mRNA

substance="328122 (antisense e[5mC]*eA*eA*eA*eA*e[5mC]*eA*eT*eA*eA*eA*eA*eA*eT*e[5mC]*e[5mC]*eT*eT*eG*e[5mC]*eA) [compound 328122]" obs_value="91 percentage of untreated control (UTC)"
substance="327887 (antisense eG*e[5mC]*eG*eA*e[5mC]*e[5mC]*eA*eT*eG*eG*e[5mC]*eT*eG*eT*eA*eG*eA*e[5mC]*eT*eG*eT*eT*eA) [compound 327887]" obs_value="43 percentage of untreated control (UTC)"
substance="327897 (antisense eA*e[5mC]*eA*eG*eG*e[5mC]*e[5mC]*eG*eG*eG*eA*e[5mC]*eA*eA*eG*eT*eG*e[5mC]*eA*eA*eT*eA) [compound 327897]" obs_value="32 percentage of untreated control (UTC)"
substance="327952 (antisense e[5mC]*eT*eA*e[5mC]*eG*e[5mC]*eG*eT*eA*eT*eT*e[5mC]*eT*eT*eA*eA*eG*e[5mC]*eA*eA*eT*eA) [compound 327952]" obs_value="61 percentage of untreated control (UTC)"
substance="341803 (antisense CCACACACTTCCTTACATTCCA; all 2'-MOE, all phosphorothioate, methylation of C not given here) [compound 341803]" obs_value="73 percentage of untreated control (UTC)"
substance="346921 (AACAACCAGCUAAGACACUGCCA; all 2'-MOE, all phosphorothioate, methylation of C and T or U not given here) [compound 346921]" obs_value="51 percentage of untreated control (UTC)"
substance="344616 (AGAGGUCGACCGUGUAAUGUGC; anti-miR; all 2'-MOE, all phosphorothioate, methylation of C and T or U not given here) [compound 344616]" obs_value="2 percentage of untreated control (UTC)"
